biological target: human KDR protein in HEK-293 cells (Homo sapiens (Human), UniProt P35968); experiment: KDR Cell Assay (phospho-KDR in HEK-293 cells expressing inducible KDR); type: cell-based; details: pKDR Cell HEK 10% FBS IC50, HEK-293 cells expressing inducible KDR, VEGF stimulated, 10% FBS
Sequence (P35968 20-1356): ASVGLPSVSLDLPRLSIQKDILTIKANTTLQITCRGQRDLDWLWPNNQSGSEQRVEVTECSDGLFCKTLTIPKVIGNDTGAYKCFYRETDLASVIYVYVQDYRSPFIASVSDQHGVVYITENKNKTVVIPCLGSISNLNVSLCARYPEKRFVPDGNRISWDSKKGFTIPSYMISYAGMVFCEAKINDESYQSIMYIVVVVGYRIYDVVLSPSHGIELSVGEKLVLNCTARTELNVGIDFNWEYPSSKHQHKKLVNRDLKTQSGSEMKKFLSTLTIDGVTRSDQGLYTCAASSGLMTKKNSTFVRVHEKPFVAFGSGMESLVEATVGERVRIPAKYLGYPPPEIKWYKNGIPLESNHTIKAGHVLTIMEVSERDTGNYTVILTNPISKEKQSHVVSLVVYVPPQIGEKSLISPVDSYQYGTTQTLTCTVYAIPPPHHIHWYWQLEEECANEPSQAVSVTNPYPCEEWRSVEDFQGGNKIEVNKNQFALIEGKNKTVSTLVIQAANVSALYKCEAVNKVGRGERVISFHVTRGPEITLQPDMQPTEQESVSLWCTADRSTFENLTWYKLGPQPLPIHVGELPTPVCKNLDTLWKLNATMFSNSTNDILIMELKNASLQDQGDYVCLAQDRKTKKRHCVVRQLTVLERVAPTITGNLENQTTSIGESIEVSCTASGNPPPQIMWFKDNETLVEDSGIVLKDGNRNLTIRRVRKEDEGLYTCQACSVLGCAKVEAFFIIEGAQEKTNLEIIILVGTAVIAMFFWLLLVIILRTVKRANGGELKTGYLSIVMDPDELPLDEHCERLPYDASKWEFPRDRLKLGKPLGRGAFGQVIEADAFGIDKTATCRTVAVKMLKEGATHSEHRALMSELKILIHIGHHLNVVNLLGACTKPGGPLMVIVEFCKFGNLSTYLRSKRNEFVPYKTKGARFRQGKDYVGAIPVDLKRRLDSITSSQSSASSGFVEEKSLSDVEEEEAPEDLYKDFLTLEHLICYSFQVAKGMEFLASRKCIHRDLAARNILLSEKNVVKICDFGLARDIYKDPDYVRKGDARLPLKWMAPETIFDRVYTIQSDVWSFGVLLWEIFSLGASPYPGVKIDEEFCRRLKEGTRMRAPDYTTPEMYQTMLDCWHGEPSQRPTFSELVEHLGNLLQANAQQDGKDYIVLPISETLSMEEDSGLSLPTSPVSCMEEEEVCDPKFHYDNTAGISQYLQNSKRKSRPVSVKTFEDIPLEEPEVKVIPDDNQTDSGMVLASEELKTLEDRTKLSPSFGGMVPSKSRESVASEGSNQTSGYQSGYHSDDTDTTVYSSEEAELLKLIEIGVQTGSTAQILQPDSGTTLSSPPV

{"compound": "Cn1cc(-c2cc(-c3ccc(N4CCN(C(=O)CC5CC5)CC4)nc3)c3c(C#N)cnn3c2)cn1 [Example 77]", "target": "human KDR protein in HEK-293 cells (Homo sapiens (Human), UniProt P35968)", "measure.unit": "µM", "IC50": 0.605}
{"compound": "Cn1cc(-c2cc(-c3ccc(N4CCN(S(=O)(=O)N5CCCC5)CC4)nc3)c3c(C#N)cnn3c2)cn1 [Example 138]", "target": "human KDR protein in HEK-293 cells (Homo sapiens (Human), UniProt P35968)", "measure.unit": "µM", "IC50": 0.0161}
{"compound": "Cn1cc(-c2cc(-c3ccc(N4CCN(C(=O)OC(C)(C)C)C5(CC5)C4)nc3)c3c(C#N)cnn3c2)cn1 [Example 166]", "target": "human KDR protein in HEK-293 cells (Homo sapiens (Human), UniProt P35968)", "measure.unit": "µM", "IC50": 1.99}

###

pIC50: recorded values
target: human KDR protein in HEK-293 cells (Homo sapiens (Human), UniProt P35968); test: KDR Cell Assay (phospho-KDR in HEK-293 cells expressing inducible KDR); format: cell-based; details: pKDR Cell HEK 10% FBS IC50, HEK-293 cells expressing inducible KDR, VEGF stimulated, 10% FBS
pIC50: −log10 of the molar value.
measurement.type: pIC50

{"molecule": "COC[C@H](O)CN1CCN(c2ccc(-c3cc(-c4cnn(C)c4)cn4ncc(C#N)c34)cn2)CC1", "target": "human KDR protein in HEK-293 cells (Homo sapiens (Human), UniProt P35968)", "measurement.type": "pIC50", "assay.value": 5.84}
{"molecule": "Cn1cc(-c2cc(-c3ccc(N4CCN(C(=O)C5(c6cccnc6)CC5)CC4)nc3)c3c(C#N)cnn3c2)cn1 [Example 369, bis(2,2,2-trifluoroacetate)]", "target": "human KDR protein in HEK-293 cells (Homo sapiens (Human), UniProt P35968)", "measurement.type": "pIC50", "assay.value": 5.90}
{"molecule": "CC(C)CN(C)C(=O)C1CCN(c2ccc(-c3cc(-c4cnn(C)c4)cn4ncc(C#N)c34)cn2)CC1", "target": "human KDR protein in HEK-293 cells (Homo sapiens (Human), UniProt P35968)", "measurement.type": "pIC50", "assay.value": 6.18}
{"molecule": "Cn1cc(-c2cc(-c3ccc(N4CCN(C(=O)[C@H](O)Cc5ccccc5)CC4)nc3)c3c(C#N)cnn3c2)cn1", "target": "human KDR protein in HEK-293 cells (Homo sapiens (Human), UniProt P35968)", "measurement.type": "pIC50", "assay.value": 7.49}
{"molecule": "Cn1cc(-c2cc(-c3ccc(N4CCOCC4)nc3)c3c(C#N)cnn3c2)cn1", "target": "human KDR protein in HEK-293 cells (Homo sapiens (Human), UniProt P35968)", "measurement.type": "pIC50", "assay.value": 6.26}
